Tested on: SNB-75 CNS
Experiment: NCI-60 one-dose screen, 48 h
Settings: 10 µM unless noted
This is part of a sample that, as a whole, favours compounds with a hit. Of some 83,000 tested, about 20% had one in any assay. The source made the active and inactive calls. The calls were made as follows: active = growth percent below 10; inactive = the rest.
Labels: class 1 for active, class 0 for inactive

- COMPOUND: "O=C(Nc1ccc(Nc2ccncc2)cc1)c1ccc([N+](=O)[O-])cc1"
  ASSIGNED_LABEL: "class 0"
- COMPOUND: "NC(=S)Cc1ccccc1"
  ASSIGNED_LABEL: "class 0"
- COMPOUND: "CCN(CC)CC(C)Nc1ccc(C)c2sc3ccccc3c(=O)c12 (stereo not given)"
  ASSIGNED_LABEL: "class 0"
- COMPOUND: "Fc1cc2[nH]ncc2c2c3c(c(-c4cn[nH]c4)nc12)CCCC3"
  ASSIGNED_LABEL: "class 1"
- COMPOUND: "Cc1nn(-c2ccccc2)c(N2CCOCC2)c1-c1nc2ccc([N+](=O)[O-])cc2[nH]1"
  ASSIGNED_LABEL: "class 0"
- COMPOUND: "CC(C)CSc1ncnc2nc[nH]c12"
  ASSIGNED_LABEL: "class 0"
- COMPOUND: "CN(C)Cc1ccc[nH]1"
  ASSIGNED_LABEL: "class 0"
- COMPOUND: "CCCCOC(=O)c1cccc([N+](=O)[O-])c1"
  ASSIGNED_LABEL: "class 0"
- COMPOUND: "C[C@@H]1C[C@H]2C(=O)O[C@@H](C)[C@H](NC(=O)[C@H](Cc3cc(F)cc(F)c3)NC(=O)Nc3ccc(C4CC4)cc3F)C(=O)N3CCC[C@H]3C(=O)N3CCCC[C@H]3C(=O)N[C@@H](C)C(=O)N2C1"
  ASSIGNED_LABEL: "class 1"
- COMPOUND: "O=C(Nc1cc(F)cc2cccnc12)c1cnc(N2CCNCC2)cn1"
  ASSIGNED_LABEL: "class 0"

###

Tested on: NCI-H322M lung
Experiment: NCI-60 one-dose screen, 48 h (100 = growth as untreated, 0 = no growth, -100 = all killed)
Conditions: 10 µM unless noted
Protocol: Growth inhibition of the NCI-H322M human Non-Small Cell Lung tumor cell line is measured as a screen for anti-cancer activity. Cells are grown in 96 well plates and exposed to the test compound for 48 hours. Compounds are tested at a single concentration, which is 10^-5 M for most compounds. The reported endpoint is percent growth (GI% or GIPRCNT), where numbers from 0 - 100% represent growth inhibition, and numbers from -100% - 0 represent cell death. […]
Compounds without any hit were thinned out: in the full panel of roughly 83,000, 20% have a hit. Activity calls are given as the source filed them. Rule for the calls: active = growth percent below 10; inactive = the rest.
Recorded growth for the following compounds

- COMPOUND: "C=C(C)[C@@H]1CC[C@]2(C(N)=O)CC[C@]3(C)[C@H](CC[C@@H]4[C@@]5(C)C/C(=C/c6cccnc6)[C@H](O)C(C)(C)[C@@H]5CC[C@]43C)[C@@H]12"
  growth: "35.6% [100 µM] (inactive)"
- COMPOUND: "CC(C)=CC/C=C(/C)[C@H]1CC[C@]2(C)[C@@H]1CC[C@@H]1[C@@]3(C)CC/C(=N/O)C(C)(C)[C@@H]3CC[C@]12C"
  growth: "77.3% [100 µM] (inactive)"
- COMPOUND: "NC(=O)c1cccc(-c2ccc(S(=O)(=O)Nc3ccc4c(c3)N(C(=O)C3CC3)CCC4)cc2)c1"
  growth: "70% (inactive)"
- COMPOUND: "CCCOc1ccc(-c2nc(-c3ccc(N)cc3)cs2)cc1"
  growth: "103% (inactive)"
- COMPOUND: "CCC(C)[C@H](NC(=O)NC(=O)NC(=O)CI)C(=O)OC (stereo not given in full)"
  growth: "106% (inactive)"

###

Tested on: OVCAR-5 ovarian
Experiment: NCI-60 one-dose screen, 48 h (100 = growth as untreated, 0 = no growth, -100 = all killed)
Conditions: 10 µM unless noted
About 83,000 compounds went through this panel and 20% of them were active in at least one assay; those are over-represented in the sample as a whole.

- COMPOUND: "O=C1COCCN1c1ccc(Nc2nc(Cl)nc(N3CCOCC3)n2)cc1"
  UNIT_SYMBOL: "%"
  growth: 88.3
- COMPOUND: "CCCCN(CCCC)CC(O)c1ccc(OCc2ccccc2)c2ccccc12 (stereo unspecified)"
  UNIT_SYMBOL: "%"
  growth: 98.4
- COMPOUND: "CNC(=O)c1cc(Oc2ccc3nc(NC(=O)c4ccc5ncccc5c4)sc3c2)ccn1"
  UNIT_SYMBOL: "%"
  growth: 106
- COMPOUND: "Nc1ccc(NC(=O)c2ccccc2)c2c1C(=O)c1ccccc1C2=O"
  UNIT_SYMBOL: "%"
  growth: 117
- COMPOUND: "O=C(Nc1ccc(Oc2ccc(F)cc2)c(Cl)c1)c1cccnn1"
  UNIT_SYMBOL: "%"
  growth: 84
- COMPOUND: "O=C(Nc1cccc2ccccc12)c1cc2ccccc2cc1O"
  UNIT_SYMBOL: "%"
  growth: 105
- COMPOUND: "CCCCCCCCCCCCNC(=S)N/N=C/c1ccccc1O"
  UNIT_SYMBOL: "%"
  growth: 99.1
- COMPOUND: "N#C/C(=C(/O)CCCO)c1nc2ccccc2c(=O)[nH]1"
  UNIT_SYMBOL: "%"
  growth: 92.5
- COMPOUND: "N/C(=N\\c1nc2ccccc2[nH]1)NC(=O)Cc1cccc2ccccc12"
  UNIT_SYMBOL: "%"
  growth: 88.6
- COMPOUND: "COc1ccc(NC(=S)NNc2ccc(-c3ccc(OC)c(OC)c3)nn2)cc1"
  UNIT_SYMBOL: "%"
  growth: 103
- COMPOUND: "O=C(NCc1ccccc1)C(Cl)Cl"
  UNIT_SYMBOL: "%"
  growth: 91.7

###

Tested on: MOLT-4 leukemia
Assay: NCI-60 one-dose screen, 48 h
Conditions: 10 µM unless noted
About 83,000 compounds went through this panel and 20% of them were active in at least one assay; those are over-represented in the sample as a whole. The source made the active and inactive calls. How the source made its calls: active means growth percent below 10; inactive means the rest.
Labels: 1.0 for active, 0.0 for inactive

- COMPOUND: "Nc1ccc(Cl)c([N+](=O)[O-])c1"
  ASSIGNED_LABEL: 0.0
- COMPOUND: "C=C(C)[C@@H]1CC[C@]2(C(N)=O)CC[C@]3(C)[C@H](CC[C@@H]4[C@@]5(C)C/C(=C/c6cccnc6)[C@H](O)C(C)(C)[C@@H]5CC[C@]43C)[C@@H]12"
  ASSIGNED_LABEL: 1.0
- COMPOUND: "CCOc1cccc2c(NC(C)CCCN(CC)CC)c(C)cnc12 (stereo not drawn)"
  ASSIGNED_LABEL: 0.0
- COMPOUND: "CC[C@]12C=CCN3CC[C@@]4(c5ccc(OC)cc5N(C)[C@H]4[C@@](O)(C(=O)OC)[C@@H]1OC(=O)CCC(=O)N[C@H](Cc1c[nH]c4ccccc14)C(=O)OC)[C@@H]32"
  ASSIGNED_LABEL: 1.0
- COMPOUND: "Cn1cc(-c2noc(C(=O)c3cn(C)c4ncccc34)n2)c2ccccc21"
  ASSIGNED_LABEL: 0.0
- COMPOUND: "N#Cc1c(Cl)nc(SCC2CO2)nc1-c1ccccc1 (stereo not drawn)"
  ASSIGNED_LABEL: 0.0
- COMPOUND: "CCCCCCCCCCCCCCCCCCNC(=S)N/N=C/c1ccc(OC)c(OC)c1"
  ASSIGNED_LABEL: 0.0
- COMPOUND: "O=C1Nc2ccccc2/C1=C/C(=O)c1ccc(N2CCCC2)cc1"
  ASSIGNED_LABEL: 1.0
- COMPOUND: "CC(C)OC(=O)Nc1cc(F)ccc1F"
  ASSIGNED_LABEL: 0.0
- COMPOUND: "CC1(C)CC[C@]2(C(=O)OC(=O)[C@]34CCC(C)(C)C[C@@H]3C3=CC[C@@H]5[C@@]6(C)CCC(=O)C(C)(C)[C@@H]6CC[C@@]5(C)[C@]3(C)CC4)CC[C@]3(C)C(=CC[C@@H]4[C@@]5(C)CCC(=O)C(C)(C)[C@@H]5CC[C@]43C)[C@H]2C1"
  ASSIGNED_LABEL: 0.0
- COMPOUND: "O=C1/C(=C\\c2cn(CC(O)CN3CCCCC3)c3ccccc23)c2ccccc2N1c1c(Cl)cccc1Cl (stereo not drawn)"
  ASSIGNED_LABEL: 1.0
- COMPOUND: "C[n+]1cccc(NC(=O)c2ccc3ccc4ccc(C(=O)Nc5ccc[n+](C)c5)nc4c3n2)c1"
  ASSIGNED_LABEL: 0.0
- COMPOUND: "CC(C)=CC/C=C(/C)[C@H]1CC[C@]2(C)[C@@H]1CC[C@@H]1[C@@]3(C)CC/C(=N/O)C(C)(C)[C@@H]3CC[C@]12C"
  ASSIGNED_LABEL: 0.0
- COMPOUND: "COc1cc(C)cc2oc3oc(=N)c(C(=O)c4ccccc4)cc3c(=O)c12"
  ASSIGNED_LABEL: 0.0
- COMPOUND: "Cc1ccc(Cn2c(O)c(N=NC(=O)c3ccc(S(N)(=O)=O)cc3)c3ccccc32)cc1"
  ASSIGNED_LABEL: 0.0
- COMPOUND: "CCN(CC)c1ccc2cc(C(Nc3ccc(C)cc3)c3nnnn3C(C)(C)C)c(=O)oc2c1 (stereo not drawn)"
  ASSIGNED_LABEL: 0.0
- COMPOUND: "CCCCC(CC)COC(=O)C[N+](C)(C)CCOC(c1ccccc1)c1ccccc1 (stereo not drawn)"
  ASSIGNED_LABEL: 0.0
- COMPOUND: "Cn1cc(-c2noc(-c3cn(C)c4ncc(F)cc34)n2)c2ccccc21"
  ASSIGNED_LABEL: 0.0

Source of measurements: PubChem BioAssay (NCI)
